FYI, the data here is from patent US20250154138A1.

Biological target: human IL-17A / human IL-17RA (Homo sapiens (Human), UniProt Q16552)
Sequence (Q16552 24-155): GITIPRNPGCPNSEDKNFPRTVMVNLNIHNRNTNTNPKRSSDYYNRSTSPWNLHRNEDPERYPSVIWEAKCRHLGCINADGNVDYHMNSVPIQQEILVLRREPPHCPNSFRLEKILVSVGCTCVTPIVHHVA
Test: Human IL-17A biochemical assay (HTRF, blocking of IL-17A binding to IL-17RA)
Details: 0.4 nM IL-17A, 0.3 nM IL-17RA, max compound concentration 10 uM
quantity.name: pIC50
// scale note: pIC50 = -log10(conc_M); give the bare number

Q: Reported pIC50 for CC[C@H]1CN(C2(C(=O)NC)Cc3cc4nc([C@@H](NC(=O)c5nonc5C)C5CCCCC5)[nH]c4cc3C2)C(=O)N1 [Example 33] : what is it?
Ans: 5.69

Q: Reported pIC50 for Cc1nonc1C(=O)N[C@H](C(=O)Nc1ccc2c(c1)CC(C(=O)Nc1cccc(F)c1)(N1C[C@@H](C(C)C)NC1=O)C2)C(C1CC1)C1CC1 (stereo partly drawn) [Example 236] : what is it?
Ans: 6.61

Q: Reported pIC50 for Cc1nonc1C(=O)NC(C(=O)Nc1ccc2c(c1)CC(N1C[C@@H](C(F)(F)F)NC1=O)C2)C1CCc2cc(Cl)ccc2C1 (stereo partly drawn) [Example 208] : what is it?
Ans: 6.14

###

Target: human IL-17A / human IL-17RA (Homo sapiens (Human))
Test: Human IL-17A biochemical assay (HTRF, blocking of IL-17A binding to IL-17RA)
Details: 0.4 nM IL-17A, 0.3 nM IL-17RA, max compound concentration 10 uM
quantity.name: IC50 (nM)
Give the quantity in nM, number only.

Please review the following examples before continuing.
Q: Reported IC50 for COCC1(N2CC3(CC3)CNC2=O)Cc2ccc(NC(=O)[C@@H](NC(=O)c3ccnn3C)C3CCCCC3)cc2C1 (stereo partly drawn) : what is it?
Ans: 68.3

Q: Reported IC50 for CNC(=O)C1(N2C[C@@H](C(C)C)NC2=O)Cc2ccc(NC(=O)[C@@H](NC(=O)c3ccnn3C)C3CCC(F)(F)CC3)cc2C1 (stereo partly drawn) : what is it?
Ans: 70

***
Q: Reported IC50 for Cc1nonc1C(=O)N[C@H](C(=O)Nc1ccc2c(c1)CC(C1C[C@@H](C(C)C)NC1=O)C2)C(C1CC1)C1CC1 (stereo partly drawn) : what is it?
Ans: 465

###

Biological target: human IL-17A / human IL-17RA (Homo sapiens (Human), UniProt Q16552)
Experiment: Human IL-17A biochemical assay (HTRF, blocking of IL-17A binding to IL-17RA)
Conditions: 0.4 nM IL-17A, 0.3 nM IL-17RA, max compound concentration 10 uM
# IC50 values compiled below

Please review the following examples before continuing.
Q: Reported IC50 for CNC(=O)C1(N2C[C@@H](C3CCCCC3)NC2=O)Cc2ccc(NC(=O)[C@@H](NC(=O)c3ccnn3C)C3CCCCC3)cc2C1 (stereo partly shown) : what is it?
Ans: 6300 nM

Q: Reported IC50 for Cc1nonc1C(=O)N[C@H](C(=O)Nc1ccc2c(c1)CC(C(=O)Nc1cccc(F)c1)(N1CC3(CC3)CNC1=O)C2)C(C1CC1)C1CC1 (stereo partly shown) : what is it?
Ans: 23.3 nM

Q: Reported IC50 for CNC(=O)C1(N2CCC(C)NC2=O)Cc2ccc(NC(=O)[C@@H](NC(=O)c3ccnn3C)C3CCCCC3)cc2C1 (stereo partly shown) : what is it?
Ans: 4230 nM

Q: Reported IC50 for CNC(=O)C1(N2CC3(CC3)CNC2=O)Cc2ccc(NC(=O)[C@@H](NC(=O)c3ccnn3C3CC(O)C3)C3CCCCC3)cc2C1 (stereo partly shown) : what is it?
Ans: 66 nM

Q: Reported IC50 for CNC(=O)C1(N2C[C@@H](C(C)C)NC2=O)Cc2ccc(NC(=O)C(NC(=O)c3ccnn3C)C3CCc4ccccc4C3)cc2C1 (stereo partly shown) : what is it?
Ans: 89.8 nM

***
Q: Reported IC50 for CCn1nccc1C(=O)N[C@H](C(=O)Nc1ccc2c(c1)CC(C(=O)NC)(N1CC3(CC3)CNC1=O)C2)C1CCCCC1 (stereo partly shown) : what is it?
Ans: 28 nM
